Biological target: Melanocortin receptor 3 (Homo sapiens, UniProt P41968)
Sequence (P41968 whole entry): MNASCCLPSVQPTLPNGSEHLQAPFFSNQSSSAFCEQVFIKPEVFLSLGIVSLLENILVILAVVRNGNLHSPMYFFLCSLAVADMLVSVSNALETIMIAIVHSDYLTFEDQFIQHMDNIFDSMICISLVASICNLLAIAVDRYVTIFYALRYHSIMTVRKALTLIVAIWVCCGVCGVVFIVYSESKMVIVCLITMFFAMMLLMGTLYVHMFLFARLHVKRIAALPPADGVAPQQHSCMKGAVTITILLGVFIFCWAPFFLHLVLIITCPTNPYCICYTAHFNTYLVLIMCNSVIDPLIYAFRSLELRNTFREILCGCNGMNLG
Experiment: Displacement of [125I]-NDP-alpha-MSH from human MC3 receptor expressed in HEK293 cells by gamma counting analysis
Type: cell-based
Conditions: read-out: IC50
Entries and their pIC50 values follow.
Give only the number. pIC50 is defined as minus log10 of concentration in molar units.

For orientation, consider the following solved cases.
substance_smiles	system_name	pIC50
CC(=O)N[C@H]1Cn2nncc2CN([C@H](Cc2ccccc2)C(=O)N[C@@H](CCCNC(=N)N)C(=O)N[C@@H](Cc2c[nH]c3ccccc23)C(N)=O)C1=O	Melanocortin receptor 3 (Homo sapiens, UniProt P41968)	6.00
CC(=O)N[C@H]1Cc2c([nH]c3ccccc23)CN([C@H](Cc2ccc(F)cc2)C(=O)N[C@@H](CCCNC(=N)N)C(=O)N[C@@H](Cc2c[nH]c3ccccc23)C(N)=O)C1=O	Melanocortin receptor 3 (Homo sapiens, UniProt P41968)	5.30

Shift focus to the following entry.
-- ask What is its pIC50 for Melanocortin receptor 3 (Homo sapiens, UniProt P41968)? Entry: CC(=O)N[C@H]1Cc2c([nH]c3ccccc23)CN([C@H](Cc2ccc(Br)cc2)C(=O)N[C@@H](CCCNC(=N)N)C(=O)N[C@@H](Cc2c[nH]c3ccccc23)C(N)=O)C1=O
-- reply 7.00

----------
Molecular target: Melanocortin receptor 4 (Homo sapiens, UniProt P32245)
Sequence (P32245 whole entry): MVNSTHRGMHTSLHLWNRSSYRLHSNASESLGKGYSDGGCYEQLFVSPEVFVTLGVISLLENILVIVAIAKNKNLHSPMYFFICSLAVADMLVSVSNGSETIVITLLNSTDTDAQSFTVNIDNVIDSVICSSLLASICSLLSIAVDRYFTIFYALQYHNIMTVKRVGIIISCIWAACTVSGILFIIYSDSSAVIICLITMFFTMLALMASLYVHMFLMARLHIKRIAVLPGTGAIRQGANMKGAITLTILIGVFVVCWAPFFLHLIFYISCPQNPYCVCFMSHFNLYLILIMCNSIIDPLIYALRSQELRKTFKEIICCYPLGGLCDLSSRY
Test: Agonist activity at human MC4 receptor expressed in HEK293 cells assessed as cAMP accumulation by luminescence counter
parameter: EC50 (µM)
// note: answer is a bare numeric in µM

substance_smiles	parameter	quantitative_readout
CC(=O)N[C@H]1Cn2nncc2CN([C@H](Cc2ccccc2)C(=O)N[C@@H](CCCNC(=N)N)C(=O)N[C@@H](Cc2c[nH]c3ccccc23)C(N)=O)C1=O	EC50	0.203

-- ask I would be grateful if you could share the reported EC50 for CC(=O)N[C@H]1Cc2ccccc2CN([C@H](Cc2ccccc2)C(=O)N[C@@H](CCCNC(=N)N)C(=O)N[C@@H](Cc2c[nH]c3ccccc23)C(N)=O)C1=O .
-- reply 0.227

-- ask Tell me the measured EC50 of CC(=O)N[C@H]1Cc2c([nH]c3ccccc23)CN([C@H](Cc2ccc(Br)cc2)C(=O)N[C@@H](CCCNC(=N)N)C(=O)N[C@@H](Cc2c[nH]c3ccccc23)C(N)=O)C1=O , please.
-- reply 0.0003

-- ask Value lookup for EC50; key = CC(=O)N[C@H]1Cc2c([nH]c3ccccc23)CN([C@H](Cc2ccccc2)C(=O)N[C@@H](CCCNC(=N)N)C(=O)N[C@@H](Cc2c[nH]c3ccccc23)C(N)=O)C1=O
-- reply 0.0003

-- ask Param item = CC(=O)N[C@H]1Cc2c([nH]c3ccccc23)CN([C@H](Cc2ccc(F)cc2)C(=O)N[C@@H](CCCNC(=N)N)C(=O)N[C@@H](Cc2c[nH]c3ccccc23)C(N)=O)C1=O ; retrieve measured EC50.
-- reply 0.013

----------
Target: Melanocortin receptor 5 (Homo sapiens, UniProt P33032)
Sequence (P33032 whole entry): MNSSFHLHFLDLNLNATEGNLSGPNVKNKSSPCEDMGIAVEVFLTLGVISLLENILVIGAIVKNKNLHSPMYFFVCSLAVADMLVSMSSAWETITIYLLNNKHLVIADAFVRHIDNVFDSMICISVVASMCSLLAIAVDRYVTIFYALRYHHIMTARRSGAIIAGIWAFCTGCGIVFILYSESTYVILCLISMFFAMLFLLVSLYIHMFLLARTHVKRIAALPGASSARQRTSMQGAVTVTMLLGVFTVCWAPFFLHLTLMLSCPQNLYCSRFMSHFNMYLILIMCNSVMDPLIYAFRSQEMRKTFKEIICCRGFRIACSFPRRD
Assay: Antagonist activity at human MC5 receptor expressed in HEK293 cells assessed as cAMP accumulation by luminescence counter
Assay type: functional, cell-based
Settings: read-out: EC50
parameter: pEC50
Hey, just a heads up that pEC50 is the negative log base 10 of the concentration in molar.

-- ask Fill blank: measured pEC50 of the molecule CC(=O)N[C@H]1Cc2c([nH]c3ccccc23)CN([C@H](Cc2ccc(F)cc2)C(=O)N[C@@H](CCCNC(=N)N)C(=O)N[C@@H](Cc2c[nH]c3ccccc23)C(N)=O)C1=O is ____.
-- reply 5.39
